For each record, write down the corresponding Activity.
Target: Clostridium perfringens α-N-acetylgalactosaminidase (Clostridium perfringens)
Sequence (I1SB20 1-629 limits assumed): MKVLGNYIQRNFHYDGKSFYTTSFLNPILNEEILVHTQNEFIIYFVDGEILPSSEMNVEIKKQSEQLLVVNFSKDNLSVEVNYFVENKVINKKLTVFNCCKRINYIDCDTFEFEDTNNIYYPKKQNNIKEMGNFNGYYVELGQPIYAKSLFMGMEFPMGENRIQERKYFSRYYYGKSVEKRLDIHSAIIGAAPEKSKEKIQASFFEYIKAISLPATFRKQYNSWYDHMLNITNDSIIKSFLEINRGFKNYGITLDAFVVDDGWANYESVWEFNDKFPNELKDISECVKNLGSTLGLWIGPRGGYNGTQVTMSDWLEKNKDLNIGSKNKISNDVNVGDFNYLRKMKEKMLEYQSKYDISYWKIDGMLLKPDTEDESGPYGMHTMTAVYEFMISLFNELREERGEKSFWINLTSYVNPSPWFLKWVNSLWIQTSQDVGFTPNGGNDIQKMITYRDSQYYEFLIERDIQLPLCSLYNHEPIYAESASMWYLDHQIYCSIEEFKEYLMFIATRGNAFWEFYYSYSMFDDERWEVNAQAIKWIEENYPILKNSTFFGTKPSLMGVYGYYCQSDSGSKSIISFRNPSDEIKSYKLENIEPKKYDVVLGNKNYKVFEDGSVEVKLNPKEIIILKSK
Type: biochemical

Inquiry: Bench note: what Activity did C[C@@H]1O[C@@H](Oc2ccc([N+](=O)[O-])cc2)[C@@H](O)[C@H](O)[C@@H]1O [PNP-α-L-fucopyranoside] show?
Reply text: <0.001 U/ml

Inquiry: Same lookup for O=[N+]([O-])c1ccc(O[C@H]2O[C@H](CO)[C@@H](O)[C@H](O)[C@H]2O)cc1 [PNP-α-D-glucopyranoside] , please.
Reply text: <0.001 U/ml

Inquiry: Same thing, different molecule: CC(=O)N[C@H]1[C@@H](Oc2ccc([N+](=O)[O-])cc2)O[C@H](CO)[C@H](O)[C@@H]1O [PNP-N-acetyl-α-D-galactosaminide]
Reply text: 0.334 U/ml

Inquiry: And for O=[N+]([O-])c1ccc(O[C@@H]2OC[C@H](O)[C@H](O)[C@H]2O)cc1 [PNP-α-L-arabinopyranoside] ?
Reply text: <0.001 U/ml

Inquiry: What about Cc1cc(=O)oc2cc(O[C@@H]3O[C@H](CO)[C@H](O)[C@H](O)[C@H]3O)ccc12 [4MU-α-D-galactopyranoside] ?
Reply text: <0.001 U/ml

Inquiry: C[C@@H]1O[C@H](Oc2ccc([N+](=O)[O-])cc2)[C@@H](O)[C@H](O)[C@@H]1O [PNP-β-L-fucopyranoside] ?
Reply text: <0.001 U/ml

Inquiry: O=[N+]([O-])c1ccc(O[C@@H]2O[C@H](CO)[C@@H](O)[C@H](O)[C@H]2O)cc1 [PNP-β-D-glucopyranoside] ?
Reply text: <0.001 U/ml

Inquiry: Try O=[N+]([O-])c1ccc(O[C@H]2O[C@H](CO)[C@@H](O)[C@H](O)[C@@H]2O)cc1 [PNP-α-D-mannopyranoside] next.
Reply text: <0.001 U/ml

Inquiry: Subsequent entry: CC(=O)N[C@H]1[C@H](Oc2ccc([N+](=O)[O-])cc2)O[C@H](CO)[C@@H](O)[C@@H]1O [PNP-N-acetyl-β-D-glucosaminide]
Reply text: <0.001 U/ml

Inquiry: Let us now turn to CC(=O)NC1C(O)CC(Oc2ccc3c(C)cc(=O)oc3c2)(C(=O)O)OC1C(O)C(O)CO (stereo not drawn) [4MU-N-acetyl-α-neuraminic acid]
Reply text: <0.001 U/ml

Inquiry: Same question, CC(=O)N[C@H]1[C@H](Oc2ccc([N+](=O)[O-])cc2)O[C@H](CO)[C@H](O)[C@@H]1O [PNP-N-acetyl-β-D-galactosaminide] this time
Reply text: <0.001 U/ml

###

Target: Clostridium perfringens α-N-acetylgalactosaminidase (Clostridium perfringens)
Assay type: biochemical
Reported metric: Activity

Inquiry: # Activity lookup, item O=[N+]([O-])c1ccc(O[C@H]2O[C@H](CO)[C@H](O)[C@H](O)[C@H]2O)cc1 [PNP-α-D-galactopyranoside]
Reply text: <0.001 U/ml

Inquiry: Note, next up: O=[N+]([O-])c1ccc(O[C@@H]2O[C@H](CO)[C@H](O)[C@H](O)[C@H]2O)cc1 [PNP-β-D-galactopyranoside]
Reply text: <0.001 U/ml

Inquiry: For CC(=O)N[C@H]1[C@@H](Oc2ccc([N+](=O)[O-])cc2)O[C@H](CO)[C@@H](O)[C@@H]1O [PNP-N-acetyl-α-D-glucosaminide] then?
Reply text: <0.001 U/ml
